Target: UniProt Q6DWJ6
Sequence (Q6DWJ6 1-353): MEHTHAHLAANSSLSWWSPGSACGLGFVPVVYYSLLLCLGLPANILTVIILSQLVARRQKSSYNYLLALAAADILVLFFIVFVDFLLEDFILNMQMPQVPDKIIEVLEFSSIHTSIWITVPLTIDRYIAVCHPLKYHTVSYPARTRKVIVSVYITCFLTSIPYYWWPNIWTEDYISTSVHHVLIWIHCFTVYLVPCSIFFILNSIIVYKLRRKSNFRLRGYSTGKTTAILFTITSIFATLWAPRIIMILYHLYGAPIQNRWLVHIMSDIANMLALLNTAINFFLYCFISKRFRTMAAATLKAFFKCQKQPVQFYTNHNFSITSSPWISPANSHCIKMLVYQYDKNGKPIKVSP
Experiment: GPR139 Agonist titration / agonist counterscreen assay (calcium detection, HEK-GPR139 cells)
Type: cell-based
Parameters: expressed in transfected cells; host or cells: HEK Aequorin cells, Maxcyte transient transfection
Conditions: GPR139 Agonist Activity; values printed in E-notation without unit; read-out: EC50
pEC50: −log10 of the molar value.
QUANTITY_KIND: pEC50

• N#C/C(=C/c1ccc(CNS(=O)(=O)c2ccccc2)o1)C(=O)NCCc1ccccc1 [SR-01000318079] = 6.68
• Cc1ccc(C)c(C(=O)CCC(=O)NNC(=O)c2cc(C)oc2C)c1 [SR-01000069642] = 7.37
• Cc1cccc(NC(=S)NNC(=O)CSCc2cccc3ccccc23)c1 [SR-07000002775] = 6.69
• O=C(Cn1cc2c(n1)CCCCC2)NCCCc1ccccc1 [SR-01000088420] = 6.81
• O=C(NCCn1ccc2ccccc21)c1cccs1 [SR-01000124129] = 6.91
• O=C(NCc1csc(-c2cccs2)n1)C1CC(Cc2ccc3c(c2)OCO3)=NO1 (centres unmarked) [SR-01000187428] = 6.70
• Cc1cccc(NC(=O)Cn2ncc3c2-c2ccccc2OC3)n1 [SR-01000135038] = 7.30
• O=C(c1ccccc1)C1CCCCC1S(=O)(=O)O (centres unmarked) [SR-01000197834] = 6.88
• COc1ccccc1OCC(=O)NCCc1ccc2c(c1)CCCN2C [SR-01000911654] = 8.10
• COc1ccc(CCNC(=O)c2ccnc(N3CCN(Cc4ccc5c(c4)OCO5)CC3)c2)cc1 [SR-01000654192] = 6.96
• CCCn1c(CCC(=O)NCCc2ccc(OCC)cc2)nc2cccnc21 [SR-01000077930] = 7.64
• O=C(NCC1Cc2cccc(-c3ccccn3)c2O1)c1ccc(-n2cccn2)cc1 (centres unmarked) [SR-01000183606] = 7.66
• O=C(Cn1cnc2ccccc21)NCCCn1ccc2ccccc21 [SR-01000926263] = 6.90
• CC(NC(=O)c1ccc2c(c1)N(Cc1ccccc1)C(=O)C[S+]2[O-])c1ccccc1 (centres unmarked) [SR-01000129845] = 6.86
• O=C(CN1C(=O)NC2(CCCc3ccccc32)C1=O)N1CCCCCC1 (centres unmarked) [SR-01000075116] = 6.85
• COc1ccc(NC(=O)NCC2CC(=O)N(c3ccccc3)C2)cc1 (centres unmarked) [SR-01000912290] = 7.84
• CCn1c(=O)c([N+](=O)[O-])c(NCCc2ccc(OC)cc2)c2ccccc21 [SR-01000918303] = 6.78
• Cc1ccccc1CS(=O)(=O)CCC(=O)NC(C)c1ccccc1 (centres unmarked) [SR-01000145393] = 6.94
• O=C(NCCn1ccc2ccccc21)c1cccc(Br)c1 [SR-01000124135] = 6.70
• O=C(NNC(=O)C1CC1c1ccccc1)Nc1cccc(Cl)c1 (centres unmarked) [SR-01000202338] = 7.94
• CCc1cccc(NC(=O)Cn2ncc3c2-c2ccccc2OC3)c1 [SR-01000098944] = 7.65
• COc1cc(C(=O)NCCn2ccc3ccccc32)cc(OC)c1OC [SR-01000124399] = 7.20
• CC(C)C(C)(C#N)NC(=O)CSc1nnc(Cc2cccc3ccccc23)n1N (centres unmarked) [SR-01000052065] = 6.74
• CC(NC(=O)Cn1ncc2c(Cl)cccc21)c1ccc2c(c1)OCCO2 (centres unmarked) [SR-01000155068] = 7.57
• CC1(c2ccc(Cl)cc2)NC(=O)N(CC(=O)NCc2cccs2)C1=O (centres unmarked) [SR-01000058107] = 7.63
• CCn1c(C)nc2cc(C(=O)NNC(=O)Cc3cccc4ccccc34)ccc21 [SR-01000041378] = 7.34
• O=C(CN1C(=O)NC2(CCc3ccccc3C2)C1=O)Nc1ccccc1Oc1ccccc1 (centres unmarked) [SR-01000039980] = 7.98
• COc1ccc(CNC(=O)Nc2ccc(-c3cn[nH]c3)cc2)cc1.O=C(O)C(F)(F)F [SR-00000005347] = 6.72
• CC(NC(=O)Cn1cc(NC(=O)c2ccccc2F)cn1)c1ccccc1Cl (centres unmarked) [SR-01000194602] = 7.72
• O=C(CN1CCCc2ccccc21)NNC(=O)Nc1ccc(Cl)c(Cl)c1 [SR-01000029575] = 7.11
• Cc1ccccc1NC(=O)CSC1=C(C#N)C(c2ccccc2C(F)(F)F)C2=C(CCCC2=O)N1 (centres unmarked) [SR-01000484454] = 7.07
• O=C(CCc1nc2cccnc2n1Cc1cccs1)NCCc1cccs1 [SR-01000077903] = 7.22
• CC(C)(C)n1c2c(c(=O)[nH]c1=O)C(NC(=O)CCC1CCCCC1)(C(F)(F)F)C(=O)N2 (centres unmarked) [SR-01000091502] = 6.85

* * *

Biological target: GPR139 (Homo sapiens, UniProt Q6DWJ6)
Sequence (Q6DWJ6 1-353): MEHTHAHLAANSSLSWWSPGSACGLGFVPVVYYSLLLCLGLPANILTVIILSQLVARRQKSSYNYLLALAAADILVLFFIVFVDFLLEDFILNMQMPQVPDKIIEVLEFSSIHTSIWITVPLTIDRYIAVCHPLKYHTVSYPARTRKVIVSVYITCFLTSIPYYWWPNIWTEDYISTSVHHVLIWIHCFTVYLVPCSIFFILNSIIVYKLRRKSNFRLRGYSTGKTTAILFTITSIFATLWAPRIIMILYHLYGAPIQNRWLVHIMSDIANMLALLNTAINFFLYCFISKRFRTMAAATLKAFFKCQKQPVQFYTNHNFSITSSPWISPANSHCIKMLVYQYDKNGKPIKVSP
Experiment: GPR139 Antagonist titration assay (calcium detection, HEK-GPR139 cells, vs EC80 of S-JNJ-63533054)
Conditions: based on logD
Note to self: GPR139 Antagonist Activity Lipophilic Efficiency (logD) under 1 means Fulfilled, ties and anything higher get Not fulfilled.

- Cc1ccc(Oc2ccc(OCC(=O)N3C(C)CCCC3C)cc2)cc1 (centres unmarked): Fulfilled
- COc1ccc(OC)c(NC2=C(Cl)C(=O)N(c3ccccc3C)C2=O)c1: Not fulfilled
- CCCc1sc(N2CCN(C(=O)c3ccccc3)CC2)nc1-c1ccccc1: Fulfilled
- CC1=NN(Cc2ccc(Cl)cc2Cl)C(=O)C1: Not fulfilled
- CCOC(=O)C(CC)Oc1ccc2c(C)c(Cc3ccccc3)c(=O)oc2c1 (centres unmarked): Fulfilled
- CCCOC(=O)c1ccc(NC(=O)CSc2ccccc2)cc1: Not fulfilled
- COc1ccccc1CNC(=O)N1c2ccccc2Sc2ccccc21: Not fulfilled
- O=c1c(-c2ccc(Cl)cc2)c(C(F)(F)F)oc2cc(O)ccc12: Not fulfilled
- Cc1c(-c2cccc(NC(=O)C3c4ccccc4Oc4ccccc43)c2)nc2ncccn12: Not fulfilled
- Cc1cccc(-n2ccnc2SCC(=O)Nc2cccc(C)c2C)c1: Fulfilled
- Cc1cc(I)ccc1NC(=O)CSc1cccs1: Fulfilled
- COc1cccc(OC)c1C(=O)Oc1ccc2c(=O)c(-c3ccc(Cl)cc3)c(C(F)(F)F)oc2c1: Fulfilled
- COc1cc(C(=O)Nc2ccc(N3C(=O)c4ccc(Cl)cc4C3=O)c(C)c2)cc(OC)c1OC: Not fulfilled
- CCn1cc(Cl)c(C(=O)OCC23CCC4c5ccccc5OC(C)(CC2C)C4C3C)n1 (centres unmarked): Fulfilled

* * *

Molecular target: UniProtKB Q6DWJ6
Assay: GPR139 Agonist titration / agonist counterscreen assay (calcium detection, HEK-GPR139 cells)
Format: cell-based
Parameters: expressed in transfected cells; host or cells: HEK Aequorin cells, Maxcyte transient transfection
Conditions: GPR139 Agonist Activity; based on logD
Method: GPR activity was assessed using a calcium detection assay. […] Negative control samples were treated with DMSO. […] Intracellular calcium was measured using Calcium 5.
QUANTITY_KIND: Lipophilic Efficiency (logD)

* Cc1cc(Cl)ccc1OC(C)C(=O)NNC(=O)c1ccccc1 (stereo not drawn) | 4.45
* O=C(CN1C(=O)NC2(CCc3ccccc32)C1=O)Nc1cccc(Cl)c1 (stereo not drawn) | 4.18
* Cc1ccc2c(CC(=O)NNC(=O)CC34CC5CC(CC(C5)C3)C4)coc2c1 | 3.67
* CC(Oc1ccc(Cl)cc1Cl)C(=O)NNC(=O)COc1ccccc1 (stereo not drawn) | 3.80
* CC(C)C(C)(C#N)NC(=O)CSc1nnc(Cc2cccc3ccccc23)n1N (stereo not drawn) | 4.63
* Cc1nc(CNC(=O)CCC2(Cc3cccc4ccccc34)CCC(=O)N2)cs1 (stereo not drawn) | 4.29
* COP(=O)(CN(CCc1ccc(Cl)cc1)C(=O)Nc1ccc(Cl)c(Cl)c1)OC | 2.25
* COc1ccc(CCNC(=O)c2ccnc(N3CCN(Cc4ccc5c(c4)OCO5)CC3)c2)cc1 | 3.51
* CCC1CCCCN1C(=O)CN1C(=O)NC(C)(c2ccc3ccccc3c2)C1=O (stereo not drawn) | 4.73
* CC(NC(=O)COC(=O)c1ccccc1C(F)(F)F)c1ccccc1 (stereo not drawn) | 3.59
* COc1ccc(CCNC(=O)CC(=O)NCCc2ccc(OC)cc2)cc1 | 4.65
* O=C(c1ccccc1)C1CCCCC1S(=O)(=O)O (stereo not drawn) | 6.98
* COc1cc(OC)cc(C(=O)NNC(=O)C(C)Oc2ccc(Cl)cc2Cl)c1 (stereo not drawn) | 4.56
* CCC1(c2ccc(Cl)cc2)NC(=O)N(CC(=O)N2CC3(C)CC2CC(C)(C)C3)C1=O (stereo not drawn) | 3.67
* COc1cc(C(=O)NCCn2ccc3ccccc32)cc(OC)c1OC | 4.50
* CC(Oc1ccc(Cl)cc1Cl)C(=O)NNC(=O)c1ccc(F)cc1 (stereo not drawn) | 3.08
* COc1cc(C(C)=O)ccc1OCC(=O)NC(C)CCc1ccccc1 (stereo not drawn) | 4.43
* COc1ccc(C2(C)NC(=O)N(CC(=O)NC3CCCC3)C2=O)cc1 (stereo not drawn) | 6.47

Attribution: patent US20250099420A1
